- Assayed Target: UniProtKB Q92731
- Sequence (Q92731 whole entry, species assumed): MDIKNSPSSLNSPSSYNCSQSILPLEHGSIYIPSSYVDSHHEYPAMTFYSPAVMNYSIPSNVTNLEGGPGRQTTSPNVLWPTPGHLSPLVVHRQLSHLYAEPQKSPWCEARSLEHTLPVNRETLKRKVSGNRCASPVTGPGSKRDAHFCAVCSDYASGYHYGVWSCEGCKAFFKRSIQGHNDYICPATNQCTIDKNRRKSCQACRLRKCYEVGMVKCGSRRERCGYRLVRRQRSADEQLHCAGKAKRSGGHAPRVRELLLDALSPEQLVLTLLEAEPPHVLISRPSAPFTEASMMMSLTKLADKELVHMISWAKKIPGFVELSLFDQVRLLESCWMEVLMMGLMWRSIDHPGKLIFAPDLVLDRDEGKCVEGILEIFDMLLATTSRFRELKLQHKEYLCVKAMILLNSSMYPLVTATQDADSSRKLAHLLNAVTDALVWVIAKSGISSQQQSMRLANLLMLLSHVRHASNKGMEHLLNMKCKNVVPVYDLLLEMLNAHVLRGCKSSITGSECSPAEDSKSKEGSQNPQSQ
- Measurement Protocol: ERβ competition binding assay
- Cond: 3H-estradiol competition; Ki from IC50 by Cheng-Prusoff
Recorded Endpoint: Ki
Kindly format the answer as number then unit.

Query: Which Ki is listed for Oc1ccc2c3c(cnc2c1)-c1ccc(C(F)(F)F)cc1OC3c1ccc(OCCN2CC(CF)C2)cc1 (single isomer, unassigned) ?
Response: 0.11 nM

---

- Assayed Target: ERα (Y537S mutant) (Homo sapiens (Human), UniProt P03372, Y537S)
- Sequence (P03372 whole entry Y537S): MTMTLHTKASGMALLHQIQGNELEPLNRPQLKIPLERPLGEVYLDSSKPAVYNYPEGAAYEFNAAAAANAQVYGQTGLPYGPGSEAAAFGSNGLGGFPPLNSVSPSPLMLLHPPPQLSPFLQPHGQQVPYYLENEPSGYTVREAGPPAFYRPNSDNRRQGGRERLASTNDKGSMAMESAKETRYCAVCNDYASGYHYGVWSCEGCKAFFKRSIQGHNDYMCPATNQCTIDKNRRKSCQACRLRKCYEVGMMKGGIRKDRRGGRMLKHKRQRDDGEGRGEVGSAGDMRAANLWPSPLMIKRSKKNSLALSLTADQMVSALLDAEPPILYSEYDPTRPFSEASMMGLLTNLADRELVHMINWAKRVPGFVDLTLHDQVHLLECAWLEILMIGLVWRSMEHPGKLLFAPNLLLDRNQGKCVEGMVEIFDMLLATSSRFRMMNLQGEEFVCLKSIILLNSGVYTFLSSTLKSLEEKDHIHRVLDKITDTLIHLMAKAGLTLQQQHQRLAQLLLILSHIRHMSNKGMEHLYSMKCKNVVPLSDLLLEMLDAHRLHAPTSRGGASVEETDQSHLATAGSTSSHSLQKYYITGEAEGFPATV
- Measurement Protocol: ERα (Y537S mutant) competition binding assay
- Cond: 3H-estradiol competition; Ki from IC50 by Cheng-Prusoff
Recorded Endpoint: Ki
Kindly format the answer as number then unit.

Query: Which Ki is listed for Oc1ccc2c3c(cnc2c1)-c1cccc(Cl)c1OC3c1ccc(OCCN2CC(CF)C2)cc1 (single isomer, unassigned) [Example 4A] ?
Response: 55 nM

Query: Which Ki is listed for Oc1ccc2c3c(cnc2c1)-c1ccc(F)cc1OC3c1ccc(OCCN2CC(CF)C2)cc1 (single isomer, unassigned) [Example 5A] ?
Response: 81.2 nM

Query: Which Ki is listed for Cc1cccc2c1OC(c1ccc(OCCN3CC(CF)C3)cc1)c1c-2cnc2cc(O)ccc12 (single isomer, unassigned) [Example 8A] ?
Response: 66.9 nM

Query: Which Ki is listed for Cc1ccc2c(c1)OC(c1ccc(OCCN3CC(CF)C3)cc1)c1c-2cnc2cc(O)ccc12 (racemic) [Example 7] ?
Response: 8.55 nM

Query: Which Ki is listed for Oc1ccc2c3c(cnc2c1)-c1cccc(C(F)(F)F)c1OC3c1ccc(OCCN2CC(CF)C2)cc1 (single isomer, unassigned) [Example 2A] ?
Response: 7.92 nM

---

- Assayed Target: ERα (Y537S mutant) (Homo sapiens (Human), UniProt P03372, Y537S)
- Measurement Protocol: ERα (Y537S mutant) competition binding assay
- Cond: 3H-estradiol competition; Ki from IC50 by Cheng-Prusoff
// values below are reported Ki
Kindly format the answer as number then unit.

Worked set:
>>> print(df.to_string())
                                   molecule  recorded_endpoint   result
0  Oc1ccc2c3c(cnc2c1)-c1cccc(F)c1OC3c1ccc(OCCN2CC(CF)C2)cc1 (racemic) [Example 6]                 Ki  15.8 nM
1  Oc1ccc2c3c(cnc2c1)-c1ccc(F)cc1OC3c1ccc(OCCN2CC(CF)C2)cc1 (racemic) [Example 5]                 Ki  19.5 nM
2  Oc1ccc2c3c(cnc2c1)-c1cccc(C(F)(F)F)c1OC3c1ccc(OCCN2CC(CF)C2)cc1 (racemic) [Example 2]                 Ki  6.78 nM
3  Oc1ccc2c3c(cnc2c1)-c1cccc(C(F)(F)F)c1OC3c1ccc(OCCN2CC(CF)C2)cc1 (single isomer, unassigned) [Example 2B]                 Ki   294 nM
4  Oc1ccc2c3c(cnc2c1)-c1cccc(F)c1OC3c1ccc(OCCN2CC(CF)C2)cc1 (single isomer, unassigned) [Example 6B]                 Ki  5.71 nM

Query: Item Oc1ccc2c3c(cnc2c1)-c1cccc(Cl)c1OC3c1ccc(OCCN2CC(CF)C2)cc1 (racemic) [Example 4] with ERα (Y537S mutant) (Homo sapiens (Human), UniProt P03372, Y537S) - Ki?
Response: 12.1 nM

Query: Item Oc1ccc2c3c(cnc2c1)-c1ccc(F)cc1OC3c1ccc(OCCN2CC(CF)C2)cc1 (single isomer, unassigned) [Example 5B] with ERα (Y537S mutant) (Homo sapiens (Human), UniProt P03372, Y537S) - Ki?
Response: 6.56 nM
